Biological target: FGFR3 enzyme (Homo sapiens (Human), UniProt P22607)
Sequence (P22607 23-806): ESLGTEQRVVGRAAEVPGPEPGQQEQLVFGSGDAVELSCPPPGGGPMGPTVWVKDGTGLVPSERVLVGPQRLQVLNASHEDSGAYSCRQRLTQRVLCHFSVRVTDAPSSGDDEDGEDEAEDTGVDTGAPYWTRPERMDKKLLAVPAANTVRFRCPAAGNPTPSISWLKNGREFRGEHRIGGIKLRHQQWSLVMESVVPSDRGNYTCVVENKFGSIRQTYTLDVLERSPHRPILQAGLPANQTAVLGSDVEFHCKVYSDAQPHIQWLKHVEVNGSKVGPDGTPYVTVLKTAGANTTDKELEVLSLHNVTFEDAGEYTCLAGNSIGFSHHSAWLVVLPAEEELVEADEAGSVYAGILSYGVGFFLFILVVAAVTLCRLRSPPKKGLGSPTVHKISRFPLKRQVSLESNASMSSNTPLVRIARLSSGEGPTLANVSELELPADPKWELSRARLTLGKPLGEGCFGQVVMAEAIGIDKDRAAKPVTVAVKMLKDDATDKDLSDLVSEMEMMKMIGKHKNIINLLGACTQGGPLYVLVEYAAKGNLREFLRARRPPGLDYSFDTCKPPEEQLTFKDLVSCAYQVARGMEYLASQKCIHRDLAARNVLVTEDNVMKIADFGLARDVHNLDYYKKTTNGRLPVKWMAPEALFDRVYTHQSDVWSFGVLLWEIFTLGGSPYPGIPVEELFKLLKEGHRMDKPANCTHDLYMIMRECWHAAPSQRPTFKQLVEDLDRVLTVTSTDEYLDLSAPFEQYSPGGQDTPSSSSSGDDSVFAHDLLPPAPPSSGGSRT
Assay: FGFR Enzymatic Assay (peptide phosphorylation, FRET), FGFR3
Assay type: biochemical
Conditions: IC50 ratio showing FGFR3 selectivity; pre-incubated for 4 hours
Measurement Kind: FGFR4/FGFR3

Request: What FGFR4/FGFR3 value was documented for this compound, COc1cc(OC)c(F)c(N2Cc3cnc(-c4cn(C)nc4C)cc3N(Cc3ccncc3)C2=O)c1F ?
Result: >5

Request: Quick one: COc1cc(OC)c(F)c(N2Cc3cnc(-c4cn(C)nc4C)cc3N(Cc3ccnc(C)c3)C2=O)c1F
Result: >5

Request: Likewise for COc1cccc(N2C(=O)N(c3c(F)c(OC)cc(OC)c3F)Cc3cnc(-c4cn(C)nc4C)cc32)c1 ?
Result: >10

Request: Same thing, different compound: COc1cc(OC)c(F)c(N2Cc3cnc(-c4cn(C)nc4C)cc3N(C3CCOC3)C2=O)c1F (centres unmarked)
Result: >5

Request: # repeat for CCN1C(=O)N(c2c(F)c(OC)cc(OC)c2F)Cc2cnc(-c3ccc(C(=O)NC4CC4)nc3)cc21
Result: >5

Request: Also CCc1cc(CN2C(=O)N(c3c(F)c(OC)cc(OC)c3F)Cc3cnc(-c4cn(C)nc4C)cc32)no1 , if possible.
Result: >10

Request: Would you mind doing COc1cc(OC)c(F)c(N2Cc3cnc(-c4cn(C)nc4C)cc3N(c3ccc(S(C)(=O)=O)cc3)C2=O)c1F as well?
Result: >10

Request: // repeat for COc1cc(OC)c(F)c(N2Cc3cnc(-c4cn(C)nc4C)cc3N(c3ccnnc3)C2=O)c1F and report
Result: >10

Request: Now consider COc1cc(OC)c(F)c(N2Cc3cnc(-c4cn(C)nc4C)cc3N(c3cc(F)cc(C#N)c3)C2=O)c1F and answer again.
Result: >3

Request: Let us now turn to CCN1C(=O)N(c2c(F)c(OC)cc(OC)c2F)Cc2cnc(-c3ccc(N4CCOCC4)nc3)cc21
Result: >5

Request: Same read-out for COc1cc(OC)c(F)c(N2Cc3cnc(-c4cn(C)nc4C)cc3N(C3CCN(S(C)(=O)=O)CC3)C2=O)c1F ?
Result: >3

Request: What do you have for COc1cc(OC)c(F)c(N2Cc3cnc(-c4cn(CC(=O)N5CCOCC5)nc4C)cc3C3(CC3)C2=O)c1F ?
Result: >3

Request: Thanks! And COc1cc(OC)c(F)c(N2Cc3cnc(-c4cn(C)nc4C)cc3N(Cc3cncnc3)C2=O)c1F ?
Result: >5

Request: Entry COc1cc(OC)c(F)c(N2Cc3cnc(-c4cn(CCCN5CCOCC5)nc4C)cc3C3(CC3)C2=O)c1F please
Result: >5

Request: # iterate: COc1cc(OC)c(F)c(N2Cc3cnc(-c4cnn(C)c4)cc3C3(CC3)C2=O)c1F
Result: >5

Request: Now consider COc1cnc(N2C(=O)N(c3c(F)c(OC)cc(OC)c3F)Cc3cnc(-c4cn(C)nc4C)cc32)cn1 and answer again.
Result: >5

Request: Follow-up item: COc1cc(OC)c(F)c(N2Cc3cnc(-c4cn(C)nc4C)cc3N(Cc3ccccn3)C2=O)c1F
Result: >10

Request: Can you check CCCNC(=O)c1ccc(-c2cc3c(cn2)CN(c2c(F)c(OC)cc(OC)c2F)C(=O)N3CC)cn1 next?
Result: >10

Request: And what about the compound COc1cc(OC)c(F)c(N2Cc3cnc(-c4cn(C)nc4C)cc3N(c3cnn(C4CC4)c3)C2=O)c1F ?
Result: >5

Request: Ok, now COc1cc(OC)c(F)c(N2Cc3cnc(-c4cn(C)nc4C)cc3N(Cc3cnccn3)C2=O)c1F
Result: >10

Request: And what about the compound COc1cc(OC)c(F)c(N2Cc3cnc(-c4cn(C)nc4C)cc3N(Cc3cnn(CC#N)c3)C2=O)c1F ?
Result: >5

Request: Same again, this time with COc1cc(OC)c(F)c(N2Cc3cnc(-c4cn(C)nc4C)cc3N(c3cn[nH]c3)C2=O)c1F
Result: >10

Request: Next: CCNC(=O)c1ccc(-c2cc3c(cn2)CN(c2c(F)c(OC)cc(OC)c2F)C(=O)N3CC)cn1
Result: >5

Request: Now this one: COc1cc(OC)c(F)c(N2Cc3cnc(-c4cn(C)nc4C)cc3N(c3ccc(-c4nnc(C)o4)cc3)C2=O)c1F
Result: >5

Request: How about CNS(=O)(=O)c1cccc(N2C(=O)N(c3c(F)c(OC)cc(OC)c3F)Cc3cnc(-c4cn(C)nc4C)cc32)c1 ?
Result: >5

Request: Next: COc1cc(OC)c(F)c(N2Cc3cnc(-c4cn(C)nc4C)cc3N(c3ccccc3F)C2=O)c1F
Result: >5

Request: Next compound up: CNC(=O)c1ccc(CN2C(=O)N(c3c(F)c(OC)cc(OC)c3F)Cc3cnc(-c4cn(C)nc4C)cc32)cc1
Result: >5

Request: // next record COc1cc(OC)c(F)c(N2Cc3cnc(-c4cn(C)nc4C)cc3N(c3ccc(F)cc3)C2=O)c1F
Result: >10

Request: Another compound to look at: COc1cc(OC)c(F)c(N2Cc3cnc(-c4cn(C)nc4C)cc3N(Cc3cc(C)on3)C2=O)c1F
Result: >10

###

Target: FGFR3 enzyme (Homo sapiens (Human), UniProt P22607)
Experiment: FGFR Enzymatic Assay (peptide phosphorylation, FRET), FGFR3
Assay type: biochemical
Conditions: IC50 ratio showing FGFR3 selectivity; pre-incubated for 4 hours
Measurement Kind: FGFR1/FGFR3

Request: Look at this molecule and give its reported FGFR1/FGFR3. CCN1C(=O)N(c2c(F)c(OC)cc(OC)c2F)Cc2cnc(-c3ccc(C4(C#N)CC4)cc3)cc21 [Example 183]
Result: >3

Request: Another molecule to check: COc1cc(OC)c(F)c(N2Cc3cnc(-c4ccc(C5(C#N)CCC5)nc4)cc3N(c3cnn(C)c3)C2=O)c1F [Example 188]
Result: >5

Request: Follow-up entry: COc1cc(OC)c(F)c(N2Cc3cnc(-c4cn(C)nc4C)cc3N(c3ccnnc3)C2=O)c1F [Example 57]
Result: >10

Request: # iterate: COc1cc(OC)c(F)c(N2Cc3cnc(-c4cnn(C5(CC#N)CN(C(C)=O)C5)c4)cc3C3(CC3)C2=O)c1F [Example 56]
Result: >5

Request: Next molecule up: COc1cc(OC)c(F)c(N2Cc3cnc(-c4cn(C)nc4C)cc3N(c3cnn(C4CC4)c3)C2=O)c1F [Example 130]
Result: >5

Request: What do you get for COc1cc(OC)c(F)c(N2Cc3cnc(-c4ccccc4)cc3C3(CC3)C2=O)c1F [Example 17] ?
Result: >10

Request: Next molecule: COC(=O)Nc1ccc(N2C(=O)N(c3c(F)c(OC)cc(OC)c3F)Cc3cnc(-c4cn(C)nc4C)cc32)cc1 [Example 123]
Result: >5

###

Molecular target: FGFR4 (Homo sapiens (Human))
Sequence (P22455 22-802): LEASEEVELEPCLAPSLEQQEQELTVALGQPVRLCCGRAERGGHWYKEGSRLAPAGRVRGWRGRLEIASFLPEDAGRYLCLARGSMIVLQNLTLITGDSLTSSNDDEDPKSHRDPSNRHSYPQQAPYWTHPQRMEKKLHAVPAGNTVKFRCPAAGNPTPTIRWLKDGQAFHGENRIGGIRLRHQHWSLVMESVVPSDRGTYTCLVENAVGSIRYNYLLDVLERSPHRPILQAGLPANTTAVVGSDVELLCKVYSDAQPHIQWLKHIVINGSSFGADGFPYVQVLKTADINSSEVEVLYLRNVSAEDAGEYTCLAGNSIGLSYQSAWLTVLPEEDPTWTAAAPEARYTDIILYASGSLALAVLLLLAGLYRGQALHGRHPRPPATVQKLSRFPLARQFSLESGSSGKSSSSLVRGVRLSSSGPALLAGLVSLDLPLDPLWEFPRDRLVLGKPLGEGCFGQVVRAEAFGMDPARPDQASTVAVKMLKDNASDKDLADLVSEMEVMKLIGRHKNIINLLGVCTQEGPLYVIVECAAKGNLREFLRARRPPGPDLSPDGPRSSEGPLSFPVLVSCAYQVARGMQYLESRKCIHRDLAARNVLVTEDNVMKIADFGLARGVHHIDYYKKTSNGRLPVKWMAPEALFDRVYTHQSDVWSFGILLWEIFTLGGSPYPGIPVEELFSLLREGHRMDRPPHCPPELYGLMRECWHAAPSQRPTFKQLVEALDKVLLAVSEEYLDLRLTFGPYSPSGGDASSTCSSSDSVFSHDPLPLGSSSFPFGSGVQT
Test: FGFR Enzymatic Assay (peptide phosphorylation, FRET), FGFR4
Format: biochemical
Settings: IC50 ratio showing FGFR4 selectivity; pre-incubated for 4 hours
Measurement Kind: FGFR1/FGFR4

Request: May I ask what FGFR1/FGFR4 has been recorded for COc1cc(OC)c(F)c(N2Cc3cnc(-c4cncc(CN5CCOCC5)c4)cc3C3(CC3)C2=O)c1F ?
Result: >50

Request: What do you have for COc1cc(OC)c(F)c(N2Cc3cnc(-c4cncc(N5CCOCC5)c4)cc3C3(CC3)C2=O)c1F ?
Result: >100

Request: Do the same for COc1cc(OC)c(F)c(N2Cc3cnc(-c4cc(N)cnc4C)cc3C3(CC3)C2=O)c1F please
Result: >50

Request: Now the same for COc1cc(OC)c(F)c(N2Cc3cnc(-c4cc(N)ccc4C)cc3C3(CC3)C2=O)c1F
Result: >25

Request: Do the same for COc1cc(OC)c(F)c(N2Cc3cnc(-c4cncc(N)c4)cc3C3(CC3)C2=O)c1F please
Result: >25

Request: For COc1cc(OC)c(F)c(N2Cc3cnc(-c4cncc(F)c4)cc3C3(CC3)C2=O)c1F then?
Result: >10

Request: And then COc1cc(OC)c(F)c(N2Cc3cnc(-c4cncc(-n5ccnc5)c4)cc3C3(CC3)C2=O)c1F , what is it?
Result: >50

Request: Next: COc1cc(OC)c(F)c(N2Cc3cnc(-c4nn(CC5CCOCC5)cc4C#N)cc3C3(CC3)C2=O)c1F
Result: >100

###

Biological target: UniProtKB P22455
Test: FGFR Enzymatic Assay (peptide phosphorylation, FRET), FGFR4
Assay type: biochemical
Settings: ratio of IC50 data showing FGFR4 selectivity; pre-incubated for 5 to 10 minutes
I'd be grateful if you could share measured FGFR1/FGFR4 for these entries.

Request: Which value of FGFR1/FGFR4 has been reported for COc1cc(OC)c(F)c(N2Cc3cnc(-c4cncc(Cl)c4)cc3C3(CC3)C2=O)c1F [Example 11] in the records?
Result: >50

Request: // next record COc1cc(OC)c(F)c(N2Cc3cnc(-c4cncc(C#N)c4)cc3C3(CC3)C2=O)c1F [Example 8]
Result: >50

Request: // query: COc1cc(OC)c(F)c(N2Cc3cnc(-c4cc(N)cnc4C)cc3C3(CC3)C2=O)c1F [Example 7]
Result: >25

Request: Please answer likewise for COc1cc(OC)c(F)c(N2Cc3cnc(-c4cncc(F)c4)cc3C3(CC3)C2=O)c1F [Example 5]
Result: >10

Request: Input COc1cc(OC)c(F)c(N2Cc3cnc(-c4cncc(CN5CCOCC5)c4)cc3C3(CC3)C2=O)c1F [Example 16]
Result: >25

Request: // query: COc1cc(OC)c(F)c(N2Cc3cnc(-c4cc(N)c(F)cc4C)cc3C3(CC3)C2=O)c1F [Example 2]
Result: >10

Request: COc1cc(OC)c(F)c(N2Cc3cnc(-c4cncc(N)c4)cc3C3(CC3)C2=O)c1F [Example 4]
Result: >10

Request: Further, for COc1cc(OC)c(F)c(N2Cc3cnc(-c4cc(N)ccc4C)cc3C3(CC3)C2=O)c1F [Example 1] ?
Result: >25

Request: Now try COc1cc(OC)c(F)c(N2Cc3cnc(-c4cncc(-n5ccnc5)c4)cc3C3(CC3)C2=O)c1F [Example 12] .
Result: >50

Request: Please give the result for COc1cc(OC)c(F)c(N2Cc3cnc(-c4cncc(NS(C)(=O)=O)c4)cc3C3(CC3)C2=O)c1F [Example 15] too.
Result: >50

Request: COc1cc(OC)c(F)c(N2Cc3cnc(-c4cc(N)ccc4C#N)cc3C3(CC3)C2=O)c1F [Example 3] , same question.
Result: >25

Request: Would you kindly repeat that for COc1cncc(-c2cc3c(cn2)CN(c2c(F)c(OC)cc(OC)c2F)C(=O)C32CC2)c1 [Example 10] ?
Result: >25

Attribution: patent US10251892B2
